Just for reference, patent US20100324086A1 is where these values come from.

target-or-test-system: recombinant, membrane-bound mPGES-1 (Homo sapiens)
experiment-description: Thiobarbituric acid assay (TBA-MDA assay), inhibition of mPGES-1
condition-context: remaining PGH2 measured at 535 nm
readout-label: IC50 (nM)
Numeric answer only, unit nM assumed.

## Task What value of IC50 has been recorded for this entry: O=C(NC1CCCCCC1)c1cccc(NC(=O)c2ccccc2Br)c1
## Result 180

## Task What about this compound? O=C(Nc1cccc2cccnc12)c1cccc(NC(=O)c2ccccc2Cl)c1
## Result 800

## Task What about this compound? C[C@H](NC(=O)c1cccc(NC(=O)c2ccccc2C(F)(F)F)c1)c1cccc2ccccc12
## Result 290

## Task What about this compound? O=C(NC1CCCCCC1)c1cccc(NC(=O)c2ccccc2F)c1
## Result 460

## Task What about this compound? O=C(NC(c1ccccc1)c1ccccc1)c1cccc(NC(=O)c2ccccc2Cl)c1
## Result 300

## Task What about this compound? Cc1ccccc1CNC(=O)c1cccc(NC(=O)c2ccccc2C(F)(F)F)c1
## Result 1000

## Task What about this compound? Cc1cc(NC(=O)c2cccc(NC(=O)c3ccccc3Cl)c2)c2ccccc2n1
## Result 1100

## Task What about this compound? Cc1cccc(CNC(=O)c2cccc(NC(=O)c3ccccc3C(F)(F)F)c2)c1C
## Result 75

## Task What about this compound? O=C(NC1CCCCCC1)c1cccc(NC(=O)c2ccccc2I)c1
## Result 260

----------
target-or-test-system: recombinant, membrane-bound mPGES-1 (Homo sapiens, UniProt O14684)
Sequence (O14684 1-152): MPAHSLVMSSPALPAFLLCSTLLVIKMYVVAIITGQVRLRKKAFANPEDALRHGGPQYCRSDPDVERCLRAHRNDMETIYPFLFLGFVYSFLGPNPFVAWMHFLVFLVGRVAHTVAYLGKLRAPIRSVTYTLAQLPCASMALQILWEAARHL
experiment-description: Thiobarbituric acid assay (TBA-MDA assay), inhibition of mPGES-1
condition-context: remaining PGH2 measured at 535 nm
readout-label: pIC50
Note: pIC50 values are expressed as the negative base-10 logarithm of concentration in M.

## Task What value of pIC50 has been recorded for this entry: O=C(NCc1cccc(Br)c1)c1cccc(NC(=O)c2ccccc2C(F)(F)F)c1 [Compound 138]
## Result 6.80

## Task What about this molecule? O=C(NCc1cccc2ccccc12)c1cccc(NC(=O)c2ccccc2I)c1 [Compound 112]
## Result 6.66

## Task What about this molecule? O=C(NCc1ccccc1OC(F)(F)F)c1cccc(NC(=O)c2ccccc2C(F)(F)F)c1 [Compound 147]
## Result 6.96

## Task What about this molecule? COc1cccc(OC)c1C(=O)Nc1cccc(C(=O)NCc2cccc3ccccc23)c1 [Compound 108]
## Result 5.66

## Task What about this molecule? C[C@H](NC(=O)c1cccc(NC(=O)c2ccccc2Cl)c1)c1cccc2ccccc12 [Compound 85]
## Result 6.43

## Task What about this molecule? O=C(NCc1cccc2ccccc12)c1cccc(NC(=O)c2ccccc2Cl)c1 [Compound 117]
## Result 6.59

## Task What about this molecule? Cc1ccccc1C(=O)Nc1cccc(C(=O)NCc2cccc3ccccc23)c1 [Compound 110]
## Result 6.48

## Task What about this molecule? O=C(NCc1ccccc1)c1cccc(NC(=O)c2ccccc2C(F)(F)F)c1 [Compound 141]
## Result 6.55

## Task What about this molecule? O=C(NCc1cccc2ccccc12)c1cccc(NC(=O)c2ccccc2-c2cccs2)c1 [Compound 116]
## Result 5.60

## Task What about this molecule? O=C(Nc1cccc(C(=O)Nc2ccc3ccccc3n2)c1)c1ccccc1 [Compound 17, 3-Benzoylamino-N-quinolin-2-yl-benzamide]
## Result 5.46

## Task What about this molecule? O=C(Nc1ccc2ccccc2n1)c1cccc(NC(=O)c2ccccc2C(F)(F)F)c1 [Compound 43]
## Result 6.72

## Task What about this molecule? O=C(NC1CCCCCC1)c1cccc(NC(=O)c2ccccc2Cl)c1 [Compound 36]
## Result 6.48

## Task What about this molecule? COc1ccccc1C(=O)Nc1cccc(C(=O)Nc2ccc3ccccc3n2)c1 [Compound 41]
## Result 5.43

## Task What about this molecule? Cc1ccccc1C(=O)Nc1cccc(C(=O)N[C@@H](C)c2cccc3ccccc23)c1 [Compound 78]
## Result 6.16

## Task What about this molecule? Cc1ccccc1C(=O)Nc1cccc(C(=O)Nc2ccc3ccccc3n2)c1 [Compound 44]
## Result 6.19

## Task What about this molecule? O=C(NCc1ccccc1N1CCOCC1)c1cccc(NC(=O)c2ccccc2C(F)(F)F)c1 [Compound 149]
## Result 5.70

## Task What about this molecule? O=C(NCc1cccc2c1OCCO2)c1cccc(NC(=O)c2ccccc2C(F)(F)F)c1 [Compound 148]
## Result 6.00

## Task What about this molecule? O=C(NC1CCCCCC1)c1cccc(NC(=O)c2c(Cl)cccc2Cl)c1 [Compound 55]
## Result 6.20

## Task What about this molecule? COc1cccc(OC)c1C(=O)Nc1cccc(C(=O)N[C@@H](C)c2cccc3ccccc23)c1 [Compound 76]
## Result 5.39

## Task What about this molecule? O=C(NCc1ccccc1)c1cccc(NC(=O)c2ccccc2Cl)c1 [Compound 2]
## Result 5.24

## Task What about this molecule? O=C(NCc1cccc2ccccc12)c1cccc(NC(=O)c2ccccc2Br)c1 [Compound 103]
## Result 6.74

## Task What about this molecule? O=C(Nc1ccc(-c2ccccc2)cn1)c1cccc(NCc2ccccc2C(F)(F)F)c1 [Compound 166]
## Result 7.28

## Task What about this molecule? O=C(NCc1cccc2ccccc12)c1cccc(NCc2ccccc2Br)c1 [Compound 122]
## Result 6.00

## Task What about this molecule? O=C(NCc1ccccc1-c1ccccc1)c1cccc(NC(=O)c2ccccc2C(F)(F)F)c1 [Compound 136]
## Result 6.70

## Task What about this molecule? C[C@@H](NC(=O)c1cccc(NC(=O)c2ccccc2C(F)(F)F)c1)c1cccc2ccccc12 [Compound 93]
## Result 6.92

## Task What about this molecule? C[C@H](NC(=O)c1cccc(NC(=O)c2ccccc2F)c1)c1cccc2ccccc12 [Compound 73]
## Result 5.74

## Task What about this molecule? O=C(NCc1ccccc1N1CCCCC1)c1cccc(NC(=O)c2ccccc2C(F)(F)F)c1 [Compound 146]
## Result 6.77

## Task What about this molecule? C[C@@H](NC(=O)c1cccc(NC(=O)c2ccccc2I)c1)c1cccc2ccccc12 [Compound 96]
## Result 6.64

## Task What about this molecule? C[C@@H](NC(=O)c1cccc(NC(=O)c2ccccc2F)c1)c1cccc2ccccc12 [Compound 88]
## Result 5.64

## Task What about this molecule? O=C(NC1CCCCCC1)c1cccc(NC(=O)c2ccccc2C(F)(F)F)c1 [Compound 56]
## Result 6.18

## Task What about this molecule? C[C@@H](NC(=O)c1cccc(NC(=O)c2c(Cl)cccc2Cl)c1)c1cccc2ccccc12 [Compound 89]
## Result 6.22

## Task What about this molecule? O=C(Nc1ccc2ccccc2n1)c1cccc(NC(=O)c2c(Cl)cccc2Cl)c1 [Compound 40]
## Result 6.10

## Task What about this molecule? O=C(Nc1nc2cc(Cl)ccc2o1)c1cccc(NC(=O)c2ccccc2C(F)(F)F)c1 [Compound 164]
## Result 7.17
